Please go through the items and note down their Cocklebur plant response rating.
Tested on: cocklebur
test.name: Test B pre/postemergence cocklebur
Type: in vivo, Xanthium strumarium
details: Preemergence, Rate 500 g/ha; scale of 0 to 10 where 0 is no effect and 10 is complete control
Numbers only.

Example cases with answers are listed next.
* CC(C)N(C(=O)n1oc(=O)n(CCCCF)c1=O)c1ccc(Cl)cc1 | 0
* Cc1ccccc1-n1c(=O)on(C(=O)N(c2ccc(Cl)cc2)C(C)C2CC2)c1=O (centres unmarked) | 0
* Cc1cccc(C(C)(C)C)c1-n1c(=O)on(C(=O)N(c2ccc(F)cc2)C(C)C)c1=O | 0
* CC(C)N(C(=O)n1oc(=O)n(CCC2OCCO2)c1=O)c1ccccc1 | 0

Could you now look at the following compound, please?
For record CC(C)N(C(=O)n1oc(=O)n(CC2OCCO2)c1=O)c1ccc(F)cc1F the listed Cocklebur plant response rating is 3

====

Test system: duck salad
test.name: Test B flood test duck salad
Format: in vivo, Heteranthera limosa
details: Postemergence, Rate 62 g/ha; scale 0 to 10, 0 is no effect, 10 is complete control
Please go through the items and note down their Ducksalad plant response rating.
Give bare numbers.

Hi, could you look up Ducksalad plant response rating for each item in my list?
1. CCN(C(=O)n1oc(=O)n(-c2ccccc2OC)c1=O)C1CCCCC1
2. CC(C)N(C(=O)n1oc(=O)n(-c2cccc3c2CCCC3)c1=O)c1ccc(F)cc1
3. CC(C)N(C(=O)n1oc(=O)n(Cc2cccs2)c1=O)c1ccc(F)cc1F
4. CC(C)N(C(=O)n1oc(=O)n(-c2ccccc2)c1=O)c1ccc(F)cc1
5. CCN(CC)C(=O)n1oc(=O)n(-c2cc(Cl)cc(Cl)c2)c1=O

Marked response:
1: 0; 2: 0; 3: 0; 4: 0; 5: 0

====

Tested on: cocklebur
test.name: Test B pre/postemergence cocklebur
Type: in vivo, Xanthium strumarium
details: Rate 500 g/ha, Postemergence; scale 0 to 10, 0 no effect, 10 complete control
Please go through the items and note down their Cocklebur plant response rating.
Numbers only.

Example cases with answers are listed next.
* Cc1ccccc1N(C(=O)n1oc(=O)n(-c2ccccc2C)c1=O)C(C)C | 0
* CC(C)N(C(=O)n1oc(=O)n(-c2cccnc2)c1=O)c1ccccc1 | 0
* CC(C)=CCCC(C)=CCn1c(=O)on(C(=O)N(c2ccc(F)cc2)C(C)C)c1=O | 0

Hi, could you look up Cocklebur plant response rating for each item in my list?
1. COc1ccccc1Cn1c(=O)on(C(=O)N(c2ccccc2)C(C)C)c1=O
2. CC(C)N(C(=O)n1oc(=O)n(-c2cccnc2)c1=O)c1ccc(F)cc1
3. CC(C)N(C(=O)n1oc(=O)n(CC(C)(C)C)c1=O)c1ccc(F)cc1

Marked response:
[3, 3, 2]

For record CSCCn1c(=O)on(C(=O)N(c2ccc(F)cc2)C(C)C)c1=O the listed Cocklebur plant response rating is 1

====

System: purple nutsedge
test.name: Test B pre/postemergence purple nutsedge
Format: in vivo, Cyperus rotundus
details: Preemergence, Rate 125 g/ha; 0 is no effect, 10 is complete control
Method: […] At the same time, these crop and weed species were also treated with postemergence applications of test chemicals formulated in the same manner. […] Treated plants and controls were maintained in a greenhouse for twelve to sixteen days, after which all species were compared to controls and visually evaluated. […]
recorded.metric: Nutsedge plant response rating (0 to 10 scale)

Hi, could you look up Nutsedge plant response rating (0 to 10 scale) for each item in my list?
1. CC(C)N(Cc1ccccc1)C(=O)n1oc(=O)n(C(C)C)c1=O
2. CC(C)N(C(=O)n1oc(=O)n([C@@H](C)c2ccccc2)c1=O)c1ccc(Cl)cc1
3. CC(C)N(C(=O)n1oc(=O)n(N(C)C)c1=O)c1ccc(F)cc1
4. CC(C)N(C(=O)n1oc(=O)n([C@@H](C)c2ccccc2)c1=O)c1ccccc1
5. CC1CCCCC1n1c(=O)on(C(=O)N(c2ccccc2)C(C)C)c1=O (stereo not shown)
6. CC(C)N(C(=O)n1oc(=O)n(C)c1=O)c1ccc(F)cc1
7. Cc1nsc(C)c1-n1c(=O)on(C(=O)N(c2ccc(F)cc2)C(C)C)c1=O

Marked response:
1: 0; 2: 0; 3: 9; 4: 0; 5: 0; 6: 5; 7: 0
